Experiment: clinical
Settings: male, human, in vivo, 0.06 mg/kg, Vd
measured_attribute: Vd (L/kg)

{"record_smiles": "CN1CCc2cccc3c2[C@H]1Cc1ccc(O)c(O)c1-3", "quantitative_result": 2.33}

====

Assay: clinical
Settings: male, human, in vivo, iv, 0.01 mg/kg, Cl

{"compound": "CN1CCc2cccc3c2[C@H]1Cc1ccc(O)c(O)c1-3 [apomorphine]", "clearance / L/h/kg": 4.37}

====

Conditions: male, human, in vivo, 0.114 mg/kg

{"record_smiles": "CN1CCc2cccc3c2[C@H]1Cc1ccc(O)c(O)c1-3", "Vd (L/kg)": 2.07}

====

Assay: clinical
Conditions: male, human, in vivo, iv, 1 mg, Cl

{"compound": "CN1CCc2cccc3c2[C@H]1Cc1ccc(O)c(O)c1-3 [apomorphine]", "clearance / mL/min": 5100}

Sourced from patent US6566368B2
